B1: KCNK9 (parent)
chain: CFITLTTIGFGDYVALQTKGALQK

- Variants of: B1
- Assay remarks: protein stability index of a GFP-peptide fusion (GPS, HEK-293T) (PSI 1-6); higher = more stable;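 also: lentivirally expressed fusions sorted by FACS into six bins by GFP to DsRed ratio, PSI derived from sequencing read proportions per bin multiplied by bin number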
- Cond: c terminus: a fixed tail appended
Output true for protein stability index not less than 2; output false otherwise.

Please review the entries below; each comes with its answer.
I3R = false
L16R = true
T6E = false
D12P = true
G11Q = true

Ask: Does V14L have a reported protein stability index of at least 2?
Reply: true

Ask: Item: L16Y
Reply: true

Ask: Item: A15Y
Reply: true

Ask: Item: A15D
Reply: true

Ask: Item: L5N
Reply: true

Ask: Item: V14P
Reply: true

Ask: Item: F10E
Reply: true

Ask: Item: A21R
Reply: true

Ask: Item: K19W
Reply: true

Ask: Item: G9D
Reply: true

Ask: Item: A21N
Reply: true

Ask: Item: Q23R
Reply: false

Ask: Item: T18E
Reply: true

Ask: Item: G20Q
Reply: true

Ask: Item: G11E
Reply: true

Ask: Item: I3H
Reply: false

Ask: Item: I3F
Reply: false

Ask: Item: G11C
Reply: true
